Values were extracted from patent US20160152728A1.

Target: EGFRvIII-Fc fusion antigen (human, UniProt P00533 25-645)
Assay: SPR Biacore T200, EGFRvIII-Fc captured via anti-hu Fc, scFv analyte, 1:1 model;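 further: Multi-cycle kinetics on a CM5 chip in HBS-P+ running buffer, 180 s scFv association then 540 s dissociation, with blank flow cell signals subtracted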
measured_attribute: KD improvement factor vs parental scFv Li3G30 (fold)
Give the value in fold but do not write fold after it.

>  <binder>
scFv 472 (scFv, V domains shown, One-chain scFv, His-tagged) VH: EVQLVQSGAEVKKPGESLKISCKGSGYSFGYYWIGWVRQMPGKGLEWMGIIYPGDSHTRYSPSFQGQVTISADKSISTAYLQWSSLKASDTAMYYCARLGSSWTNDAFDIWGQGTLVTVSS VL: SYELTQPPSVSVSPGQTARITCSGDALPKQYAYWYQQKPGQAPVLVIYKDTERPSGIPERFSGSSSGTTVTLTISGVQAEDEADYYCQSVDSSGTQVVFGGGTKLTVL

>  <value_observed>
96.3

$$$$

In the following, a different binder is considered.
Determine from records and report KD improvement factor vs parental scFv Li3G30 for scFv 478 (scFv, V domains shown, One-chain scFv, His-tagged) VH: EVQLVQSGAEVKKPGESLKISCKGSGYSFNSYWIGWVRQMPGKGLEWMGIIYPGDEDTRYSPSFQGQVTISADKSISTAYLQWSSLKASDTAMYYCARLGSSWTNDAFDIWGQGTLVTVSS VL: SYELTQPPSVSVSPGQTARITCSGDALPKQYAYWYQQKPGQAPVLVIYKDTERPSGIPERFSGSSSGTTVTLTISGVQAEDEADYYCQSVDPSGTYVVFGGGTKLTVL
49.6
